Value source: paper PMC10726354

Biological target: PD-L1 (Homo sapiens, UniProt Q9NZQ7)
Construct: expressed in transfected cells; host or cells: PC3 cells (human prostate carcinoma), stably transduced
Sequence (Q9NZQ7 19-290): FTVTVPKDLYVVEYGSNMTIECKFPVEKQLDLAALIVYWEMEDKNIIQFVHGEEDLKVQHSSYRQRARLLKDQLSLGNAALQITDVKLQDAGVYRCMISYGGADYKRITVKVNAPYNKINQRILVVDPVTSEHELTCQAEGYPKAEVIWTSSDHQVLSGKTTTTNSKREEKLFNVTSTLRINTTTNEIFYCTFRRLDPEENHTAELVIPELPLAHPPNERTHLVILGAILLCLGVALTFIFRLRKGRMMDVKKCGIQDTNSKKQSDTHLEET
Test: Real-time radioligand binding (LigandTracer) on PC3 PD-L1 cells
Conditions: medium + 2.5% BSA, n = 1
Label condition met when Bmax [normalized (%)] is strictly below 200%; otherwise label condition not met.

[
  {
    "COMPOUND": "Cc1c(COc2cc(OCc3cncc(C#N)c3)c(CN[C@@H](CS(=O)(=O)O)C(=O)NCCS(=O)(=O)O)cc2Cl)cccc1-c1cccc(OCc2cn(CCCN3CCN(C(=O)[C@H](CS(=O)(=O)O)NC(=O)CC[C@H](C(=O)O)N4CCN(CC(=O)O)CCN(CC(=O)O)CC4)CC3)nn2)c1C.[64Cu+2] [[^64Cu]Cu-1]",
    "GROUP": "condition met"
  },
  {
    "COMPOUND": "Cc1c(COc2cc(OCc3cncc(S(C)(=O)=O)c3)c(CN[C@@H](CS(=O)(=O)O)C(=O)NCCP(=O)(O)O)cc2Cl)cccc1-c1cccc(OCc2cn(CCCN3CCN(C(=O)[C@H](CS(=O)(=O)O)NC(=O)CC[C@H](C(=O)O)N4CCN(CC(=O)O)CCN(CC(=O)O)CC4)CC3)nn2)c1C.[64Cu+2] [[^64Cu]Cu-5]",
    "GROUP": "condition not met"
  },
  {
    "COMPOUND": "Cc1c(COc2cc(OCc3cncc(S(C)(=O)=O)c3)c(CN[C@@H](CS(=O)(=O)O)C(=O)NCCS(=O)(=O)O)cc2Cl)cccc1-c1cccc(OCc2cn(CCCN3CCN(C(=O)[C@H](CS(=O)(=O)O)NC(=O)CC[C@H](C(=O)O)N4CCN(CC(=O)O)CCN(CC(=O)O)CC4)CC3)nn2)c1C.[64Cu+2] [[^64Cu]Cu-3]",
    "GROUP": "condition met"
  },
  {
    "COMPOUND": "Cc1c(COc2cc(OCc3cncc(S(C)(=O)=O)c3)c(CN[C@@H](CS(=O)(=O)O)C(=O)NCCP(=O)(O)O)cc2Cl)cccc1-c1cccc(OCc2cn(CCCN3CCN(C(=O)[C@H](CP(=O)(O)O)NC(=O)CC[C@H](C(=O)O)N4CCN(CC(=O)O)CCN(CC(=O)O)CC4)CC3)nn2)c1C.[64Cu+2] [[^64Cu]Cu-6]",
    "GROUP": "condition met"
  },
  {
    "COMPOUND": "Cc1c(COc2cc(OCc3cncc(S(C)(=O)=O)c3)c(CN[C@@H](CS(=O)(=O)O)C(=O)NCCP(=O)(O)O)cc2Cl)cccc1-c1cccc(OCc2cn(CCCN3CCN(C(=O)CC[C@H](C(=O)O)N4CCN(CC(=O)O)CCN(CC(=O)O)CC4)CC3)nn2)c1C.[64Cu+2] [[^64Cu]Cu-4]",
    "GROUP": "condition not met"
  }
]
